# Target: Voltage-dependent T-type calcium channel subunit alpha-1G (Homo sapiens, UniProt O43497)
# Sequence (O43497 whole entry): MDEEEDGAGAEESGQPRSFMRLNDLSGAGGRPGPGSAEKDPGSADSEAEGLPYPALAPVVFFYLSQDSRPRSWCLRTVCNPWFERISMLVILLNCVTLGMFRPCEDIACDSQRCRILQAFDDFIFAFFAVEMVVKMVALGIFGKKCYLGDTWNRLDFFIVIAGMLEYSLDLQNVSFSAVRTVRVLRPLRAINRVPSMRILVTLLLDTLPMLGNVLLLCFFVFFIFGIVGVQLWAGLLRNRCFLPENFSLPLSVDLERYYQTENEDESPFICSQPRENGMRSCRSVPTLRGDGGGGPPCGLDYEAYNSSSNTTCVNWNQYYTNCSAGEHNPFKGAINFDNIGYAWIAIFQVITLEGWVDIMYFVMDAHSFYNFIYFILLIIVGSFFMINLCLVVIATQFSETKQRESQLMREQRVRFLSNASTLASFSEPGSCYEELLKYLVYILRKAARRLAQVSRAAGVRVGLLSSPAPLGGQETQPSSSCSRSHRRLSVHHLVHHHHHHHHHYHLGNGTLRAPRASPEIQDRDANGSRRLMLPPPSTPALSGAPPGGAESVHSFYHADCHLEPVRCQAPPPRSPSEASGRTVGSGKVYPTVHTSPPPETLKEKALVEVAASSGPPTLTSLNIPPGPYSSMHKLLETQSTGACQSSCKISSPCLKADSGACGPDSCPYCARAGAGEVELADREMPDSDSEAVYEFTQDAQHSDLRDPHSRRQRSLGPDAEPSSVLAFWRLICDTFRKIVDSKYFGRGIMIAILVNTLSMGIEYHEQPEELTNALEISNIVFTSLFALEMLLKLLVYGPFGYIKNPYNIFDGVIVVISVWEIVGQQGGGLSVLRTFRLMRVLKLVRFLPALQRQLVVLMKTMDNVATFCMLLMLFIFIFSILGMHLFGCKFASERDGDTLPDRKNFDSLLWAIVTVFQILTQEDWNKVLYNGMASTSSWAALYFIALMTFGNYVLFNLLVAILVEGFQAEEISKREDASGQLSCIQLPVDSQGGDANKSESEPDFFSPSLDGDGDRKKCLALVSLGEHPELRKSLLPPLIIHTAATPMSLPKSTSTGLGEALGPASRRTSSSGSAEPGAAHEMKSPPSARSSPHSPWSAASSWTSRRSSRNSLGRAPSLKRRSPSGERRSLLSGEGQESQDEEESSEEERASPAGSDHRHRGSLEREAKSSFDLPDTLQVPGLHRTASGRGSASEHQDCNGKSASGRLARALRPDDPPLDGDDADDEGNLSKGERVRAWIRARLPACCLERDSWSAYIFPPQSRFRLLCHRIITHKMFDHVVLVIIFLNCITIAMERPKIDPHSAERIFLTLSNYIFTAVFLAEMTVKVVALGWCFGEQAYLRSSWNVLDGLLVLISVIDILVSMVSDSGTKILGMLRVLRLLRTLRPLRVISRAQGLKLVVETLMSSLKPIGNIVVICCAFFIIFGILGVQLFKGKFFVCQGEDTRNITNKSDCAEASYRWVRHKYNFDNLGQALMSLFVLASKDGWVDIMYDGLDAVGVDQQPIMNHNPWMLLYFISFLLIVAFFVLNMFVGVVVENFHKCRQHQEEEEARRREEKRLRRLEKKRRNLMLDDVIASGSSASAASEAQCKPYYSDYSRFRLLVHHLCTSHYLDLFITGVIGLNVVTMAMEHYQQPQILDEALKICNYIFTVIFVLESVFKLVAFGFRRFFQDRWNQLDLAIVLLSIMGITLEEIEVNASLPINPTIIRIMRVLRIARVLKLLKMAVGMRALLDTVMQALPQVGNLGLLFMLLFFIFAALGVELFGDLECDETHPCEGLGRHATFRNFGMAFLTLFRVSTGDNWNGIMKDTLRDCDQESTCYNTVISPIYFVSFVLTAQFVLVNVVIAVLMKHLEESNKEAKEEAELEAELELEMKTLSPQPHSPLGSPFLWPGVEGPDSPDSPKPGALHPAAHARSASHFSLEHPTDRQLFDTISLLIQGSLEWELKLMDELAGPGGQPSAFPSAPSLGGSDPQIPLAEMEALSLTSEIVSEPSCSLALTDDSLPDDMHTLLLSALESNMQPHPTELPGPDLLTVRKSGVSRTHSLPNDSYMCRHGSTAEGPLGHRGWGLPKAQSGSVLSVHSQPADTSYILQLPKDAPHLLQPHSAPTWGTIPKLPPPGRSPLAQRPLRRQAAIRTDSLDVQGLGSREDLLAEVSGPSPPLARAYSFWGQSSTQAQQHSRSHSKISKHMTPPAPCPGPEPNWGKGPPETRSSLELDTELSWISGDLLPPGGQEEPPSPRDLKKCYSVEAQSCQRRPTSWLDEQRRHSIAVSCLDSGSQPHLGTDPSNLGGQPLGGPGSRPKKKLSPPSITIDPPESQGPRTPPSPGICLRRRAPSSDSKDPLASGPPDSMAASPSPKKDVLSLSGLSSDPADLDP
# Protocol: Antagonist activity against T-type calcium channel alpha1G
# Assay type: functional
Readout Kind: IC50

For CCCn1c(=O)[nH]c2cc(C(=O)NCCN3CCCCC3)ccc2c1=O the compound record lists IC50 as Not Active

For CC1CCCCN1CCCNC(=O)c1ccc2c(=O)n(Cc3ccc(Cl)cc3)c(=O)[nH]c2c1 (centres undefined) the compound record lists IC50 as Not Active

For COc1cccc(Cn2c(=O)[nH]c3cc(C(=O)NCCN4CCCCC4)ccc3c2=O)c1 the compound record lists IC50 as Not Active

For COc1ccccc1Cn1c(=O)[nH]c2cc(C(=O)NCCN3CCCCC3)ccc2c1=O the compound record lists IC50 as Not Active

For O=C(NCCCN1CCOCC1)c1ccc2c(=O)n(Cc3ccc(Cl)cc3)c(=O)[nH]c2c1 the compound record lists IC50 as Not Active

For O=C(NCCN1CCOCC1)c1ccc2c(=O)n(-c3ccc(F)cc3)c(=O)[nH]c2c1 the compound record lists IC50 as Not Active

For CC1CCCCN1CCCNC(=O)c1ccc2c(=O)n(C3CCCCC3)c(=O)[nH]c2c1 (centres undefined) the compound record lists IC50 as Not Active

For COc1ccc(-n2c(=O)[nH]c3cc(C(=O)NCCN4CCCCC4)ccc3c2=O)cc1 the compound record lists IC50 as Not Active

// below: IC50 requested for another compound
For COc1ccc(Cn2c(=O)[nH]c3cc(C(=O)NCCN4CCCCC4)ccc3c2=O)cc1 the compound record lists IC50 as Not Active
